Biological target: T1, HLA-DR molecule encoded by the allele HLA-DRB1*1301 (human)
T1 chain 1: not shown
T1 chain 2: not shown
Experiment: competition ELISA, nonbiotinylated peptide against the biotinylated tracer of that DR molecule
pIC50: −log10 of the molar value. Ends that are not written are not given here.
readout_type: pIC50

{"binder": "TERVRLVTRHIYNREE (not fully specified) [B1 21-36 (nonbiotinylated peptide)]", "reported_value": 6.56}
